Here, each record is paired with measured IC50 data.
Biological target: UniProt:P23097
assay metric: IC50

[[record]]
line_notation = "COc1ccc(S(=O)(=O)N2CN(C)C(=O)C[C@@H]2C(=O)NO)cc1"
result_value = "7.9 nM"

[[record]]
line_notation = "COc1ccc(S(=O)(=O)N2CC[C@H](C(=O)NO)N(S(=O)(=O)c3ccc(OC)cc3)CC2)cc1"
result_value = "0.84 nM"

[[record]]
line_notation = "COc1ccc(S(=O)(=O)N2CN(C(C)C)C(=O)C[C@@H]2C(=O)NO)cc1"
result_value = "2.9 nM"

[[record]]
line_notation = "COc1ccc(S(=O)(=O)N2C[C@@H]3CCCN3C(=O)C[C@@H]2C(=O)NO)cc1"
result_value = "2 nM"

[[record]]
line_notation = "COc1ccc(S(=O)(=O)N2CN(C(C)(C)C)C(=O)C[C@@H]2C(=O)NO)cc1"
result_value = "0.34 nM"

